Tested on: 786-0 renal
ASSAY DETAILS: NCI-60 one-dose screen, 48 h (100 = growth as untreated, 0 = no growth, -100 = all killed)
STATED CONDITIONS: 10 µM unless noted
Compounds without any hit were thinned out: in the full panel of roughly 83,000, 20% have a hit. Activity calls are given as the source filed them. Rule for the calls: active = growth percent below 10; inactive = the rest.
A collection of compounds and their measured growth

Solved cases (2 shown):
SMILES STRING	growth
CN1CCN(Cc2ccc(NC(=O)c3[nH]ncc3Nc3ncnc4sc5c(c34)CCCC5)cc2)CC1	-92.2% (active)
Cn1ccnc1C(=O)/C=C/c1ccc(CC(=O)Nc2ccc(S(F)(F)(F)(F)F)cc2)cc1	-82.7% (active)

Recorded growth for COc1cc2c(cc1O)c(=O)n(CCN(C)C)c1c3cc4c(cc3ncc21)OCO4 , please?
-54.5% (active)
